# test-target: Heat shock factor protein 1 (Mus musculus, UniProt P38532)
# Sequence (P38532 whole entry): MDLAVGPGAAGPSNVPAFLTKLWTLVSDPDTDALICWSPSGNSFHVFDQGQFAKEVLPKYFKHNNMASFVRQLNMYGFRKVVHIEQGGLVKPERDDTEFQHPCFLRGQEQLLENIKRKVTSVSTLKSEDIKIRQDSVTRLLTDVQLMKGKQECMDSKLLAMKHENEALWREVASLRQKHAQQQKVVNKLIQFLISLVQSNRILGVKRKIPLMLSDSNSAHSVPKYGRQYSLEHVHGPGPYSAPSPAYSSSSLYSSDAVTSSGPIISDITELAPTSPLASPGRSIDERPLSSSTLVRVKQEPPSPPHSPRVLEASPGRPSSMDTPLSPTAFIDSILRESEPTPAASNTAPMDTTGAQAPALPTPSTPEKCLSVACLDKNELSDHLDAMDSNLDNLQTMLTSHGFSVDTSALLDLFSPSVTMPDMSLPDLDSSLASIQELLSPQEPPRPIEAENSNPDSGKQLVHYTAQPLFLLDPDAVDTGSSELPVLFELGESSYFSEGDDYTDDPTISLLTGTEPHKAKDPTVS
# experiment: HSF1 potentiators in luciferase reporter cells, confirmation, cell-based, NIH3T3, luminescence, dose retest (AID 435004);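 further: stress induced by proteasome inhibitor MG132 added 30 min after compound; luciferase reporter driven by HSF1 response element in NIH3T3 cells; actives raise luminescence as potentiators of the MG132 stress response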
# Type: functional
Calls of active or inactive are those of the source.
Mark one answer only. Choices: YES (active), NO (inactive)

Ask: GET /call?item= Cc1cc2c(ncn2C)c(NS(=O)(=O)c2cc(Cl)ccc2Cl)c1C returns the recorded outcome of this test.
Reply: NO

====

# test-target: Polyadenylate-binding protein 1 (Homo sapiens)
# Sequence (P11940 whole entry): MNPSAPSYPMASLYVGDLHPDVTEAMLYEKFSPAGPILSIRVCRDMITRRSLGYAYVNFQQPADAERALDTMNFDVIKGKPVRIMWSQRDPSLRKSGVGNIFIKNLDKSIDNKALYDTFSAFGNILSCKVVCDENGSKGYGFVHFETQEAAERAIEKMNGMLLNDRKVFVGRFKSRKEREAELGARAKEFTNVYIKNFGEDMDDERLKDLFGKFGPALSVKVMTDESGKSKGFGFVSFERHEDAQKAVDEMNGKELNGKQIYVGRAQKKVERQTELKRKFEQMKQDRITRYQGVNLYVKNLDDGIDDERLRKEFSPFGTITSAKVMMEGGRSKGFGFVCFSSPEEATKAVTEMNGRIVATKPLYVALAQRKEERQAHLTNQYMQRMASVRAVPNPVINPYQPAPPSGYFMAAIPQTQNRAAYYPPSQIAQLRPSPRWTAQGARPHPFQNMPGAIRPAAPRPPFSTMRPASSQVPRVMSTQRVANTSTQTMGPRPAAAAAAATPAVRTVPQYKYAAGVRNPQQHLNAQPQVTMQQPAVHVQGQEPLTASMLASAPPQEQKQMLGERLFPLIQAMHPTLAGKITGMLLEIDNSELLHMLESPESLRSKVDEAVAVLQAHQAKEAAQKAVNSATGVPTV
# experiment: PABP1 MLLE–PAM2 binding inhibitor potency, dose response, biochemical, fluorescence polarization, FITC-PAM2 peptide (AID 602259)
# Type: functional
# condition-set: read-out: IC50_Mean
Calls of active or inactive are those of the source.
measurement-label: IC50

Some entries whose results are on file:
- molecule-smiles: "COc1ccc(CNC(=O)CN(Cc2ccc(Cl)cc2)C(=O)c2csnn2)cc1"
  data-value: "> 66 µM (inactive)"
- molecule-smiles: "O=C(CSC1c2ccccc2-c2ccccc21)N/N=C/c1ccccc1O"
  data-value: "> 66 µM (inactive)"
- molecule-smiles: "COc1nccnc1NS(=O)(=O)c1ccc(NC(=S)NC(=O)c2ccc(F)cc2)cc1"
  data-value: "> 66 µM (inactive)"
- molecule-smiles: "CNc1sc(C(=O)c2ccccc2F)c(N)c1-c1nc2ccccc2s1"
  data-value: "49.5 µM (inactive)"
- molecule-smiles: "CCSc1nc(=S)n(-c2ccccc2)c(C)c1C(C)=O"
  data-value: "> 66 µM (inactive)"

Ask: Print Polyadenylate-binding protein 1 (Homo sapiens) IC50 for Clc1ccc(/C=N/c2c(-c3ccco3)nc3ccccn23)cc1 .
Reply: 59.2 µM (inactive)

Ask: Print Polyadenylate-binding protein 1 (Homo sapiens) IC50 for NC(=S)N=Nc1c(O)[nH]c2cc(F)c(F)cc12 .
Reply: > 66 µM (inactive)

====

Form field: EC50 (one value per entry).
# test-target: Short transient receptor potential channel 4 (Mus musculus, UniProt Q9QUQ5)
# Sequence (Q9QUQ5 whole entry): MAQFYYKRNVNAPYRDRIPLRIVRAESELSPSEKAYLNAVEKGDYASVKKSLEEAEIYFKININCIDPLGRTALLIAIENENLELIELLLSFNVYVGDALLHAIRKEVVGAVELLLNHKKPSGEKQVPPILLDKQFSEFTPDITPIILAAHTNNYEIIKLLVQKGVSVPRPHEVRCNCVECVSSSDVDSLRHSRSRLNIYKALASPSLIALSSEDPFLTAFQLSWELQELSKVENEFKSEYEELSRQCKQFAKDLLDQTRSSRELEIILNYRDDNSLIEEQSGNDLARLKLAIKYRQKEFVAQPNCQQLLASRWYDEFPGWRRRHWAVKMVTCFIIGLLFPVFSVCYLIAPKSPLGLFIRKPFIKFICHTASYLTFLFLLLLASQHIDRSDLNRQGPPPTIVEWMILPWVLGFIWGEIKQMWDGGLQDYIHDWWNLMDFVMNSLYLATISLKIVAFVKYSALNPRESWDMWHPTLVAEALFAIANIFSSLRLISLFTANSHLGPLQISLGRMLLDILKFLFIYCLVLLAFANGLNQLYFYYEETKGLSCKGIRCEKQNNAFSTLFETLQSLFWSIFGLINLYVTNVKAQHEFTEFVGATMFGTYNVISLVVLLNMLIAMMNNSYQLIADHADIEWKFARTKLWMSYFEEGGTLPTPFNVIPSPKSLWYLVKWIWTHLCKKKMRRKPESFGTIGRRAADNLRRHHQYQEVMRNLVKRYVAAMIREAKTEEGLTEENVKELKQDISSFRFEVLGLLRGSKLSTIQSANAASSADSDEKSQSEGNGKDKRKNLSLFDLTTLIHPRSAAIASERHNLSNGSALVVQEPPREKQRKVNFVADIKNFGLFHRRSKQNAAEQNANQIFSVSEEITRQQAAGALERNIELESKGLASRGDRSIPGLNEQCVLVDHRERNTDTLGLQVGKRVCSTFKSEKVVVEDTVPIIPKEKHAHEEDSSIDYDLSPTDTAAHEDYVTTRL
# experiment: mouse TRPC4 channel activators, dose response, cell-based, HEK293 TRPC4/mu-opioid, Fluo-4 calcium (AID 434937)
# Format: functional
Activity calls are given as the source filed them.

- molecule: "Cc1ccc(COn2c(-c3ccc(Cl)cc3Cl)nc3ncccc32)cc1"
  test-target: "Short transient receptor potential channel 4 (Mus musculus, UniProt Q9QUQ5)"
  EC50: "749 nM (active)"
- molecule: "CCOC(=O)C1(CCOc2ccccc2)CCN(Cc2cnc(C)s2)CC1"
  test-target: "Short transient receptor potential channel 4 (Mus musculus, UniProt Q9QUQ5)"
  EC50: "237 nM (active)"
- molecule: "Cc1ccc(NC(=O)CCN2CCC(Cc3ccccc3)CC2)cc1"
  test-target: "Short transient receptor potential channel 4 (Mus musculus, UniProt Q9QUQ5)"
  EC50: "66.7 nM (active)"

Ask: Using known records, supply EC50 for NCCSc1c(-c2ccc(Cl)cc2)[nH]c2ccccc12
Reply: 4730 nM (active)

Ask: Using known records, supply EC50 for CCN1CCCC1CNS(=O)(=O)c1c(C)cc(C)cc1C (stereo not given)
Reply: 3350 nM (active)

====

# test-target: Heat shock factor protein 1 (Mus musculus)
# experiment: inhibition of MG132-induced HSE-luciferase signal, confirmation, cell-based, NIH3T3, luminescence, dose retest (AID 2382);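 further: NIH3T3 fibroblasts with HSF1-driven luciferase reporter stressed by proteasome inhibitor MG132; luminescence from HSF1-driven luciferase expression after 8 hours of MG132 stress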
# Assay type: functional
Calls of active or inactive are those of the source.
Form field: EC50 (one value per entry).

- compound: "Cc1ccc(NC(=O)c2ccc(Nc3c([N+](=O)[O-])cc([N+](=O)[O-])cc3[N+](=O)[O-])cc2)cc1"
  test-target: "Heat shock factor protein 1 (Mus musculus)"
  data-value: "8.29 µM (active)"

Ask: Using known records, supply EC50 for Cc1cccc(CSCCNC(=O)COc2ccc(Cl)cc2)c1
Reply: > 195 µM (not active)

Ask: Using known records, supply EC50 for N#Cc1c(SCC(=O)Nc2nccs2)nc2c(c1-c1ccco1)CCCC2
Reply: > 195 µM (not active)

Ask: Using known records, supply EC50 for COc1ccccc1NS(=O)(=O)c1ccc(C)c(C(N)=O)c1
Reply: > 195 µM (not active)

Ask: Using known records, supply EC50 for COc1ccc2nc(COC(=O)c3cccs3)c(C(C)=O)[n+]([O-])c2c1
Reply: > 195 µM (not active)

Ask: Using known records, supply EC50 for O=C(NCCc1ccccc1)c1ccc2c(c1)OCCCO2
Reply: < 0.16 µM (active)

Ask: Using known records, supply EC50 for COc1cc(NC(=O)CN(C)S(=O)(=O)c2ccc3c(c2)CC(C)N3C(C)=O)cc(OC)c1 (configuration not stated)
Reply: > 195 µM (not active)
